Listed next: entries and their corresponding Increase of intracellular concentration by SLE.
# tested system: human MDR1-encoded P-gp (L-MDR1 cells) (Homo sapiens)
# Sequence (P08183 whole entry): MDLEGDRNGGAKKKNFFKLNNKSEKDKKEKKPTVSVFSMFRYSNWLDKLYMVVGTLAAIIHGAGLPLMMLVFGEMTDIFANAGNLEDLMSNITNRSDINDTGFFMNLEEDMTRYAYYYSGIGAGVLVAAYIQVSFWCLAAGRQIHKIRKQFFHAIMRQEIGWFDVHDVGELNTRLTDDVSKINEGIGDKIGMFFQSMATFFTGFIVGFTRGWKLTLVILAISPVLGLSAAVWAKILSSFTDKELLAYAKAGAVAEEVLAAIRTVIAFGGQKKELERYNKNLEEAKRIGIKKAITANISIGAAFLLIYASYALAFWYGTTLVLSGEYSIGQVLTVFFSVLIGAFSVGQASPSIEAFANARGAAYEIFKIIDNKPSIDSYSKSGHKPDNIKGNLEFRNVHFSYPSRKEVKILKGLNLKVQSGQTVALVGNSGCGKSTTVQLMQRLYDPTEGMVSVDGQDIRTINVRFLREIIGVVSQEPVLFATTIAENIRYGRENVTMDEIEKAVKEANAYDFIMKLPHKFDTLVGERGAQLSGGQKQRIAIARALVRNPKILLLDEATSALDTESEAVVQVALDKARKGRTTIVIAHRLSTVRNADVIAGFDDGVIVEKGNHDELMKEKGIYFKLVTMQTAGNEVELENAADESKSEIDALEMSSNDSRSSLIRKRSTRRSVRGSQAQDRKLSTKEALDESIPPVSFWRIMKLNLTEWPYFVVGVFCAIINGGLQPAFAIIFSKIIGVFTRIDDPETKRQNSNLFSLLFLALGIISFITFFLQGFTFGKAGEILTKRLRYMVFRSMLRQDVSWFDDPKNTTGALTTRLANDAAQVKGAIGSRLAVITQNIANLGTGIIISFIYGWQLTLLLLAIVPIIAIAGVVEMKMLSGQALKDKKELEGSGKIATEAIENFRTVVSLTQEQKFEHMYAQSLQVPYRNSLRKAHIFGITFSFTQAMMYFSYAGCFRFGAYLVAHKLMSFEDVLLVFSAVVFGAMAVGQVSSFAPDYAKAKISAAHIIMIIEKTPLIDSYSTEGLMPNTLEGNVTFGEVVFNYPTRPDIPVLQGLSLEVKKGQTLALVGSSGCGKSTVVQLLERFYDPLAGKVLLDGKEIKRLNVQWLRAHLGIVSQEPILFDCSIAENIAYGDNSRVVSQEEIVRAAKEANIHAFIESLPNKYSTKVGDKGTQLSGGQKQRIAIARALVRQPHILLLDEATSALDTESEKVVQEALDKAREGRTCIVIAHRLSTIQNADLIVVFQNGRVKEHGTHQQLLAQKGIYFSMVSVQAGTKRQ
# measurement protocol: Uptake (intracellular concentration) of digoxin and ginsenosides in L-MDR1 cells
# Format: in vitro ADME
# measurement context: 2.0 µg/mL SLE
# Protocol: LLC-PK1 cells, a cell line lacking P-gp, and the derived cell line L-MDR1, which over-express human MDR1-encoded P-gp, were grown in minimum essential medium with supplements at 37°C, 5% CO2, and 95% humidity. […] Transepithelial resistance was measured in each well using a Millicell ERS ohmmeter (Millipore, Bedford, MA); wells registering a resistance of 200 ohms or greater, after correcting for the resistance obtained in control blank wells, were used in the transport experiments. […]
Reply numerically in fold, unit not repeated.

compound	tested system	endpoint value
CC(C)=CCC[C@](C)(O[C@@H]1O[C@H](CO)[C@@H](O)[C@H](O)[C@H]1O)[C@H]1CC[C@]2(C)[C@@H]1[C@H](O)C[C@@H]1[C@@]3(C)CC[C@H](O[C@@H]4O[C@H](CO)[C@@H](O)[C@H](O)[C@H]4O[C@@H]4O[C@H](CO)[C@@H](O)[C@H](O)[C@H]4O)C(C)(C)[C@@H]3CC[C@]12C [Rd, ginsenoside Rd]	human MDR1-encoded P-gp (L-MDR1 cells) (Homo sapiens)	2.9

In the following, a different compound is considered.
Item: C[C@H]1O[C@@H](O[C@H]2[C@@H](O)C[C@H](O[C@H]3[C@@H](O)C[C@H](O[C@H]4CC[C@@]5(C)[C@H](CC[C@@H]6[C@@H]5C[C@@H](O)[C@]5(C)[C@@H](C7=CC(=O)OC7)CC[C@]65O)C4)O[C@@H]3C)O[C@@H]2C)C[C@H](O)[C@@H]1O [Digoxin, digoxin, reference compound] | Increase of intracellular concentration by SLE: 2.7
